Origin of values: ChEMBL document CHEMBL4190319

- System: MCF7
- TEST_PROTOCOL: Cytotoxicity against human MCF7 cells assessed as cell survival at 60 uM after 96 hrs by sulforhodamine B assay relative to control
- Assay type: functional
- EXPERIMENTAL_CONDITIONS: MCF7, 96 h, read-out: Survival
viability at 60 µM values by entry

| SMILES_STRUCTURE | UNIT_LABEL | viability at 60 µM |
| --- | --- | --- |
| CCCCCCCCCCC/C=C/C(=O)N1CCCC1 | % | 69 |
| CCCCCCCCCCC/C=C/C(=O)N1CCCCCCC1 | % | 40 |
| CCCCCCCCCCCCCCC/C=C/C(=O)N1CCCCCCC1 | % | 83 |
| CCCCCCCCCCCCCCC/C=C/C(=O)N1CCCCCC1 | % | 75 |
| CCCCCCCCCCC/C=C/C(=O)N1CCC1 | % | 59 |
| CCCCCCCCCCC/C=C/C(=O)N1CCCCCC1 | % | 35 |

###

- TEST_PROTOCOL: Cytotoxicity against mouse NIH/3T3 cells assessed as cell survival at 40 uM after 96 hrs by sulforhodamine B assay relative to control
- Assay type: cell-based, NIH3T3
- EXPERIMENTAL_CONDITIONS: read-out: Survival

| SMILES_STRUCTURE | viability at 96 h, 40 µM |
| --- | --- |
| CCCCCCCCCCCCC/C=C/C(=O)N1CCCCCCC1 | 50% |
| CCCCCCCCCCCCC/C=C/C(=O)N1CCC1 | 92% |
| CCCCCCCCCCCCC/C=C/C(=O)N1CCCCC1 | 80% |
| CCCCCCCCCCCCC/C=C/C(=O)N1CCCCCC1 | 69% |
| CCCCCCCCCCC/C=C/C(=O)N1CCCCC1 | 74% |
| CCCCCCCCCCCCC/C=C/C(=O)N1CCCC1 | 60% |

###

- TARGET_DESC: UniProt O42275
- TEST_PROTOCOL: Competitive inhibition of electric eel AChE assessed as inhibition constant for enzyme-substrate-inhibitor complex preincubated for 20 mins followed by acetylthiocholine iodide substrate addition and measured for 30 mins at 1 min intervals by Ellman's method
One threshold, 40 µM, splits the recorded Ki values: lower ones are t, equal or higher ones are f.

| SMILES_STRUCTURE | GROUP |
| --- | --- |
| CCCCCCCCCCCCCCC/C=C/C(=O)N1CCCCCC1 | f |
| CCCCCCCCCCCCCCC/C=C/C(=O)N1CCCCCCC1 | f |
| CCCCCCCCCCC/C=C/C(=O)N1CCCCCC1 | f |
| CCCCCCCCCCCCC/C=C/C(=O)N1CCCCCC1 | f |
| CCCCCCCCCCCCC/C=C/C(=O)N1CCCCC1 | f |
| CCCCCCCCCCCCC/C=C/C(=O)N1CCCCCCC1 | t |
| CCCCCCCCCCC/C=C/C(=O)N1CCCCCCC1 | t |

###

viability at 96 h, 60 µM values by entry
- TEST_PROTOCOL: Cytotoxicity against mouse NIH/3T3 cells assessed as cell survival at 60 uM after 96 hrs by sulforhodamine B assay relative to control
- Format: cell-based, NIH3T3
- EXPERIMENTAL_CONDITIONS: read-out: Survival

| SMILES_STRUCTURE | UNIT_LABEL | viability at 96 h, 60 µM |
| --- | --- | --- |
| CCCCCCCCCCCCCCC/C=C/C(=O)N1CCCCCCC1 | % | 75 |
| CCCCCCCCCCC/C=C/C(=O)N1CCCCCCC1 | % | 70 |
| CCCCCCCCCCCCCCC/C=C/C(=O)N1CCCCCC1 | % | 74 |
| CCCCCCCCCCC/C=C/C(=O)N1CCCCCC1 | % | 63 |
| CCCCCCCCCCC/C=C/C(=O)N1CCCC1 | % | 78 |
| CCCCCCCCCCC/C=C/C(=O)N1CCC1 | % | 80 |

###

- TARGET_DESC: Acetylcholinesterase (Electrophorus electricus)
- Sequence (O42275 whole entry): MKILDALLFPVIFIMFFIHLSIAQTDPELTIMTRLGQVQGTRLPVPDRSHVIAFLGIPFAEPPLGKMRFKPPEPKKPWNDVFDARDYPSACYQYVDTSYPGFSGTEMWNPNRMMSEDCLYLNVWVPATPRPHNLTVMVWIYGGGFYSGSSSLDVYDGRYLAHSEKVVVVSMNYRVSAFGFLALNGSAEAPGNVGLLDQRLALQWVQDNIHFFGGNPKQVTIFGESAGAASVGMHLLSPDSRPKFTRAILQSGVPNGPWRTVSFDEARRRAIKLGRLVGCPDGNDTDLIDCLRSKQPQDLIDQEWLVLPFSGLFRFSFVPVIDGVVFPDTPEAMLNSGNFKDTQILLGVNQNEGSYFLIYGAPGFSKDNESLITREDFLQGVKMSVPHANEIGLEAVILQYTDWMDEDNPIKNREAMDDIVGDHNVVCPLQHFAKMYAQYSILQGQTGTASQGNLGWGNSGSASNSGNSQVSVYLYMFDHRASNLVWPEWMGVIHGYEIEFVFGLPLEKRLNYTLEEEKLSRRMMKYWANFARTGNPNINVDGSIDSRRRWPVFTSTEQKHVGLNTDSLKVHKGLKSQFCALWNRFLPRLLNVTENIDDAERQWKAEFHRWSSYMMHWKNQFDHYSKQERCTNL
- TEST_PROTOCOL: Competitive inhibition of electric eel AChE assessed as inhibition constant for enzyme inhibitor complex preincubated for 20 mins followed by acetylthiocholine iodide substrate addition and measured for 30 mins at 1 min intervals by Ellman's method
One threshold, 5 µM, splits the recorded Ki values: lower ones are label 1, equal or higher ones are label 0.

| SMILES_STRUCTURE | GROUP |
| --- | --- |
| CCCCCCCCCCC/C=C/C(=O)N1CCCCCC1 | label 0 |
| CCCCCCCCCCCCC/C=C/C(=O)N1CCCCCCC1 | label 1 |
| CCCCCCCCCCC/C=C/C(=O)N1CCCCCCC1 | label 0 |
| CCCCCCCCCCCCC/C=C/C(=O)N1CCCCC1 | label 0 |
| CCCCCCCCCCCCCCC/C=C/C(=O)N1CCCCCC1 | label 1 |
| CCCCCCCCCCCCC/C=C/C(=O)N1CCCCCC1 | label 1 |

###

- Tested on: A253 cell line
- TEST_PROTOCOL: Cytotoxicity against human A253 cells assessed as cell survival at 60 uM after 96 hrs by sulforhodamine B assay relative to control
- Assay type: functional
- EXPERIMENTAL_CONDITIONS: A253, 96 h, read-out: Survival
viability at 60 µM values by entry

| SMILES_STRUCTURE | TARGET_DESC | UNIT_LABEL | viability at 60 µM |
| --- | --- | --- | --- |
| CCCCCCCCCCC/C=C/C(=O)N1CCC1 | A253 cell line | % | 77 |
| CCCCCCCCCCCCCCC/C=C/C(=O)N1CCCCCC1 | A253 cell line | % | 88 |
| CCCCCCCCCCC/C=C/C(=O)N1CCCCCC1 | A253 cell line | % | 63 |
| CCCCCCCCCCC/C=C/C(=O)N1CCCCCCC1 | A253 cell line | % | 57 |
| CCCCCCCCCCCCCCC/C=C/C(=O)N1CCCCCCC1 | A253 cell line | % | 80 |
| CCCCCCCCCCC/C=C/C(=O)N1CCCC1 | A253 cell line | % | 86 |
